assayed system: rERβ (Rattus norvegicus, UniProt Q62986)
Construct: Clone 29 protein consists of 485 amino acid residues; made in house; host or cells: rabbit reticulocyte lysate in vitro translation (Promega)
Sequence (Q62986 46-530): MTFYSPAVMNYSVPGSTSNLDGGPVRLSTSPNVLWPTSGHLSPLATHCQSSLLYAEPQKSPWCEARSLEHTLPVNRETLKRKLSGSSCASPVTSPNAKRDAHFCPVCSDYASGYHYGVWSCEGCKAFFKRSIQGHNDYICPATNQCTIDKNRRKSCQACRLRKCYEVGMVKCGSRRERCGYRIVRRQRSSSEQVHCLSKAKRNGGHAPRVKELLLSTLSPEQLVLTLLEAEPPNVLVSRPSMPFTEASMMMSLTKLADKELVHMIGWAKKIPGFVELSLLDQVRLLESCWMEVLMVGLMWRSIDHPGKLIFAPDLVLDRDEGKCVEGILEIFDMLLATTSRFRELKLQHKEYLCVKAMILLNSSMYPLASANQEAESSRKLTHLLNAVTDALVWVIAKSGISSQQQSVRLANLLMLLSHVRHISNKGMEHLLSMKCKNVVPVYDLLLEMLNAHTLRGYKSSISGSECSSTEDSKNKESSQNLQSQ
assay summary: Equilibrium binding saturation experiments with [125I]-E2, rERβ
study conditions: read-out: Kd (Hill-plot)
test readout: pKd
Just so you know, pKd here is -log10 of the concentration in molar units; reply with that number alone.

Missing value: pKd, rERβ (Rattus norvegicus, UniProt Q62986), entry C[C@]12CC[C@@H]3c4ccc(O)cc4CC[C@H]3[C@@H]1C[C@@H](I)[C@@H]2O [[^125I]-E2, 16α[^125I]-17β-estradiol] . Fill in?
9.62

* * *

assayed system: rERβ (Rattus norvegicus, UniProt Q62986)
Construct: Clone 29 protein consists of 485 amino acid residues; made in house; host or cells: rabbit reticulocyte lysate in vitro translation (Promega)
assay summary: Equilibrium binding saturation experiments with [125I]-E2, rERβ
study conditions: read-out: Kd (Scatchard-plot)
test readout: pKd
Just so you know, pKd here is -log10 of the concentration in molar units; reply with that number alone.

Missing value: pKd, rERβ (Rattus norvegicus, UniProt Q62986), entry C[C@]12CC[C@@H]3c4ccc(O)cc4CC[C@H]3[C@@H]1C[C@@H](I)[C@@H]2O [[^125I]-E2, 16α[^125I]-17β-estradiol] . Fill in?
9.38
